- assay-overview: in vivo
- cond: male, ICR, mouse, po
assay-endpoint: CL/F (mL/min/kg)
Output spec: scalar in mL/min/kg, unitless text.

Fill in: CL/F of COC(=O)[C@H](c1ccccc1Cl)N1CCc2sccc2C1 is ___
2.87

----------
- tested-target: CYP2C9 (Homo sapiens, UniProt P11712)
- Construct: pooled human liver microsomes from a mixed pool of 50 donors; tissue BD Gentest Co. 452156; host or cells: human liver microsomes, pool of 50 donors
- Sequence (P11712 whole entry): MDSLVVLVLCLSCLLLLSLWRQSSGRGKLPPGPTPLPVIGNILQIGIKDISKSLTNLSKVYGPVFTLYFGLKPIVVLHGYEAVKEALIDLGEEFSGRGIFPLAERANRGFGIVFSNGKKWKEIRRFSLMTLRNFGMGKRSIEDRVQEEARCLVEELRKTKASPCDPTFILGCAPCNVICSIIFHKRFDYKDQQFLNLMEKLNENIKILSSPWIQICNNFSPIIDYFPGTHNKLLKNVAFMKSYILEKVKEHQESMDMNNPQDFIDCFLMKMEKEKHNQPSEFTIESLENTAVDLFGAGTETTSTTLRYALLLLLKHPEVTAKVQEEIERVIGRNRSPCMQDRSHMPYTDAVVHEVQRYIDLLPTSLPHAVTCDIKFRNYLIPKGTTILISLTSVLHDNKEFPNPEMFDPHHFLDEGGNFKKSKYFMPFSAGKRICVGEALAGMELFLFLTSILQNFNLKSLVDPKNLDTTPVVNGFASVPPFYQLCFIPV
- assay-overview: Time-dependent inhibition (TDI) IC50 shift assay on CYP2C9 in HLMs
- Format: in vitro ADME
- cond: 0 min pre-incubation with NADPH, 10 min incubation, read-out: IC50 on CYP2C9, 0 min inactivation incubation (TDI)
assay-endpoint: IC50

Notebook: pull reported IC50 for CYP2C9 (Homo sapiens, UniProt P11712), entry C[C@@H]1[C@H]2c3cc4c(cc3O[C@@]35OCOC3=CC(=O)[C@H](C[C@H]1C)[C@@H]25)OCO4 [Sauchinone]
> 300 µM

----------
- assay-overview: Drug interaction of sibutramine, clopidogrel, or chlorzoxazone with sauchinone in mice (plasma pharmacokinetics)
- cond: male, ICR, mouse, in vivo
assay-endpoint: Tmax (min)
Number only, in min; omit the unit.

Entry CC(C)CC(N(C)C)C1(c2ccc(Cl)cc2)CCC1 (stereo not shown) : reported Tmax = ?
15

----------
- tested-target: CYP2A6 (Homo sapiens)
- Sequence (P11509 1-494): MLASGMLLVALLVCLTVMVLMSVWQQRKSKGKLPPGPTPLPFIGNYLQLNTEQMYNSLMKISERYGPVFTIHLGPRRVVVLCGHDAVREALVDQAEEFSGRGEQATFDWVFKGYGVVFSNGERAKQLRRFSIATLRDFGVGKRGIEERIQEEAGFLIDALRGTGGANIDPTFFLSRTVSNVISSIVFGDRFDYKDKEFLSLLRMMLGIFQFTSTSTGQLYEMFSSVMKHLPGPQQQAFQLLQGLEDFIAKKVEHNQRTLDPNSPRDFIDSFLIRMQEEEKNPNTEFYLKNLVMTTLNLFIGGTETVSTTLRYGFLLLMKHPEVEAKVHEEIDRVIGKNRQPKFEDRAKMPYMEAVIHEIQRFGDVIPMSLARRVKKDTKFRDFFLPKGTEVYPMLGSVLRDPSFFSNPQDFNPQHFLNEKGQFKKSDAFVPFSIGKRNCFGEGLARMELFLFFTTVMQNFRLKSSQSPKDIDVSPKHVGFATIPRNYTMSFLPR
- assay-overview: Time-dependent inhibition (TDI) IC50 shift assay on CYP2A6 in HLMs
- Format: in vitro ADME
- Set-up: pooled human liver microsomes from a mixed pool of 50 donors; tissue BD Gentest Co. 452156; host or cells: human liver microsomes, pool of 50 donors
- cond: IC50 on CYP2A6, 30 min inactivation incubation (TDI), 30 min pre-incubation with NADPH, 10 min incubation
pIC50: −log10 of the molar value.
assay-endpoint: pIC50

Could you tell me which pIC50 is on file for C[C@@H]1[C@H]2c3cc4c(cc3O[C@@]35OCOC3=CC(=O)[C@H](C[C@H]1C)[C@@H]25)OCO4 ?
< 3.52

----------
- tested-target: CYP2E1 (Homo sapiens)
- Construct: pooled human liver microsomes from a mixed pool of 50 donors; tissue BD Gentest Co. 452156; host or cells: human liver microsomes, pool of 50 donors
- Sequence (P05181 whole entry): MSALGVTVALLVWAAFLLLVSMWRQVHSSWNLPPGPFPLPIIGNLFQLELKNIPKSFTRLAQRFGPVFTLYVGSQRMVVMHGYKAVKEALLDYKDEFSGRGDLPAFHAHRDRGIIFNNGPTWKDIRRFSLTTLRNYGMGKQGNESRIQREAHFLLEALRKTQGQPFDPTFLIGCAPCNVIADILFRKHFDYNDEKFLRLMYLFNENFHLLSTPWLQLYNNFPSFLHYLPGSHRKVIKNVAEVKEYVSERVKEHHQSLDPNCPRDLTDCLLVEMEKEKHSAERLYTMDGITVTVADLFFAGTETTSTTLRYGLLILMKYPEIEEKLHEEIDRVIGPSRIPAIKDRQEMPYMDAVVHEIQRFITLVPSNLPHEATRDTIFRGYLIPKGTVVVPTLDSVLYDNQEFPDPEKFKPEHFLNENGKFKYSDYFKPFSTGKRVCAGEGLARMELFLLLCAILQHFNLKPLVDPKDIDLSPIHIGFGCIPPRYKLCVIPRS
- assay-overview: Time-dependent inhibition (TDI) IC50 shift assay on CYP2E1 in HLMs
- Assay type: in vitro ADME
- cond: IC50 on CYP2E1, 30 min inactivation incubation (TDI), HLMs; 30 min pre-incubation with NADPH; 10 min incubation
assay-endpoint: pIC50
Field pIC50 (float): negative decimal logarithm of the concentration in molar.

Query the reported pIC50 for CYP2E1 (Homo sapiens); item: C[C@@H]1[C@H]2c3cc4c(cc3O[C@@]35OCOC3=CC(=O)[C@H](C[C@H]1C)[C@@H]25)OCO4
5.30

----------
- tested-target: CYP2B6 (Homo sapiens, UniProt P20813)
- Construct: pooled human liver microsomes from a mixed pool of 50 donors; tissue BD Gentest Co. 452156; host or cells: human liver microsomes, pool of 50 donors
- Sequence (P20813 1-491): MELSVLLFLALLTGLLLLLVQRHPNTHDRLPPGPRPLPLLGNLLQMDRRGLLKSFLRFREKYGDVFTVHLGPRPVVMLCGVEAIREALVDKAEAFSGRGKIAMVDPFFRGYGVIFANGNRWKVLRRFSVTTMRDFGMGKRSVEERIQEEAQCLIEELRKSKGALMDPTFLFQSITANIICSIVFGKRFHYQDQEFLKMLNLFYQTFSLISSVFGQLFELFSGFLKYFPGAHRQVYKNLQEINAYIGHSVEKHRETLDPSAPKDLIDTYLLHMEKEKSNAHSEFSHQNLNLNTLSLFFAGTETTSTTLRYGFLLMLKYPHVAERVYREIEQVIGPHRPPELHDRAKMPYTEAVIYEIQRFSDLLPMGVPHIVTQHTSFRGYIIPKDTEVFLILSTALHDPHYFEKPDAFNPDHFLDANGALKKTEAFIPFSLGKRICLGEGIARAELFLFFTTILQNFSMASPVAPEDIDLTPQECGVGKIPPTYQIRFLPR
- assay-overview: Time-dependent inhibition (TDI) IC50 shift assay on CYP2B6 in HLMs
- Format: in vitro ADME
- cond: IC50 on CYP2B6, 30 min inactivation incubation (TDI), HLMs; 30 min pre-incubation with NADPH; 10 min incubation
assay-endpoint: pIC50
Note on pIC50: it is the negative log10 of concentration, concentration in mol/L.

Tell me the measured pIC50 of C[C@@H]1[C@H]2c3cc4c(cc3O[C@@]35OCOC3=CC(=O)[C@H](C[C@H]1C)[C@@H]25)OCO4 [Sauchinone] , please.
5.41

----------
- tested-target: CYP3A4 (Homo sapiens, UniProt P08684)
- Construct: pooled human liver microsomes from a mixed pool of 50 donors; tissue BD Gentest Co. 452156; host or cells: human liver microsomes, pool of 50 donors
- Sequence (P08684 whole entry): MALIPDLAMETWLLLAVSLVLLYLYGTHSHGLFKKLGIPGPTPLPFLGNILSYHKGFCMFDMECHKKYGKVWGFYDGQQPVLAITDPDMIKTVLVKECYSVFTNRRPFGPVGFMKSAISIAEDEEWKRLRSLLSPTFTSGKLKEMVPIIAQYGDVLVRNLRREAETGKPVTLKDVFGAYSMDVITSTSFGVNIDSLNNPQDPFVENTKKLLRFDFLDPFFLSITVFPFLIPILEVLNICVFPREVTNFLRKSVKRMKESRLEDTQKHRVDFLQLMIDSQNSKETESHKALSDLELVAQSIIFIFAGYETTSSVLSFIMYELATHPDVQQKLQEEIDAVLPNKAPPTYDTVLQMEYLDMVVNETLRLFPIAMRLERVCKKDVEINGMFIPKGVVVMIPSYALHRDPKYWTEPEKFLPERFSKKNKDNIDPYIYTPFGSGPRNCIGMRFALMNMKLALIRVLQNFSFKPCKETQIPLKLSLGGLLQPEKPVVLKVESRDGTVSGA
- assay-overview: Time-dependent inhibition (TDI) IC50 shift assay on CYP3A4 in HLMs
- Assay type: in vitro ADME
- cond: IC50 on CYP3A4, 30 min inactivation incubation (TDI), HLMs; 30 min pre-incubation with NADPH; 10 min incubation
assay-endpoint: pIC50
On this scale, pIC50 is minus log10 of a concentration expressed in M (mol/L).

State the recorded pIC50 for this entry: C[C@@H]1[C@H]2c3cc4c(cc3O[C@@]35OCOC3=CC(=O)[C@H](C[C@H]1C)[C@@H]25)OCO4
5.94

----------
- tested-target: CYP2B6 (Homo sapiens)
- Construct: pooled human liver microsomes from a mixed pool of 50 donors; tissue BD Gentest Co. 452156; host or cells: human liver microsomes, pool of 50 donors
- assay-overview: Reversible inhibition (RI) of CYP2B6 activity in HLMs (cocktail probe assay)
- Type: in vitro ADME
- cond: bupropion hydroxylation, 50 μM bupropion, 30 min incubation
assay-endpoint: IC50 (nM)
State the answer as a number, implicitly in nM.

# query: IC50 of entry C[C@@H]1[C@H]2c3cc4c(cc3O[C@@]35OCOC3=CC(=O)[C@H](C[C@H]1C)[C@@H]25)OCO4
458

----------
- assay-overview: Drug interaction of sibutramine, clopidogrel, or chlorzoxazone with sauchinone in mice (plasma pharmacokinetics)
- cond: male, ICR, mouse, in vivo
assay-endpoint: half-life (h)
Give a bare numeral; the unit h is implied.

Name the reported half-life value associated with the molecule CC(C)CC(N(C)C)C1(c2ccc(Cl)cc2)CCC1 (stereo not shown)
3.28

----------
- assay-overview: in vivo
- cond: male, ICR, mouse
assay-endpoint: CL/F
Answer shape: numeric part, then the unit.

I am curious: what CL/F value has been reported for COC(=O)[C@H](c1ccccc1Cl)N1CCc2sccc2C1 ?
3.81 mL/min/kg

----------
- tested-target: CYP3A4 (Homo sapiens, UniProt P08684)
- Construct: pooled human liver microsomes from a mixed pool of 50 donors; tissue BD Gentest Co. 452156; host or cells: human liver microsomes, pool of 50 donors
- assay-overview: Time-dependent inhibition (TDI) IC50 shift assay on CYP3A4 in HLMs
- Format: in vitro ADME
- cond: human, human liver microsomes, pH 7.4, probe testosterone (substrate cocktail set)
assay-endpoint: IC50 shift at 10 min
Keep it simple and answer with nothing but the number.

Please report the recorded IC50 shift at 10 min for C[C@@H]1[C@H]2c3cc4c(cc3O[C@@]35OCOC3=CC(=O)[C@H](C[C@H]1C)[C@@H]25)OCO4 [Sauchinone] .
21.4
